Biological target: CCR2 (Homo sapiens (Human))
Experiment: Calcium activity assayed on the FLIPR Tetra in HEK-Gqi5 cells stably expressing CCR2
Conditions: FLIPR Tetra calcium assay
Reported IC50 values follow for various compounds
Report the value in nM with no unit label.

// sample Cc1n[nH]c(C)c1CC[S+]([O-])c1ccc(Cl)cc1NS(=O)(=O)c1cc2ccccc2o1 (stereo not shown) , its IC50 was 3050

Record summary for O=S(=O)(Nc1cc(Cl)ccc1SCc1ncc[nH]1)c1cc2ccccc2o1 : reported IC50 = 60

====

Molecular target: CCR2 (Homo sapiens (Human), UniProt P41597)
Sequence (P41597 whole entry, species assumed): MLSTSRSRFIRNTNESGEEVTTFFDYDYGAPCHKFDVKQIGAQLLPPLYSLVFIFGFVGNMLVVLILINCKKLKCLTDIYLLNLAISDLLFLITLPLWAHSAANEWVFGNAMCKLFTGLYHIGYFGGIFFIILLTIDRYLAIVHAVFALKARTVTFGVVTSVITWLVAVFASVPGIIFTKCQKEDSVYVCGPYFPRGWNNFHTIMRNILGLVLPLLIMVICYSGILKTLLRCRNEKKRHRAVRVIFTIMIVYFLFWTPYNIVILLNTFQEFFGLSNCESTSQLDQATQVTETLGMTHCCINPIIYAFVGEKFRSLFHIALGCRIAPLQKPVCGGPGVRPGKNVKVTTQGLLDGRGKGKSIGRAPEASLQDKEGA
Assay: Calcium activity assayed on the FLIPR Tetra in HEK-Gqi5 cells stably expressing CCR2
Conditions: FLIPR Tetra calcium assay
Overview of reported pIC50 across a group of molecules:
Convention used: pIC50 is expressed as -log10 of the molar concentration.

Below, 8 molecules whose answers are already recorded.
>>> df
                                   molecule  quantity_kind  reading
0  O=S(=O)(Nc1cc(Cl)ccc1SCc1cccnc1F)c1cc2ccccc2o1          pIC50     7.03
1  Nc1cccc(CSc2ccc(Cl)cc2NS(=O)(=O)c2cccc(Cl)c2)c1          pIC50     5.84
2  COc1ccc([S+]([O-])Cc2cccc([N+](=O)[O-])c2)c(NS(=O)(=O)c2cc3ccccc3o2)c1 (stereo not drawn)          pIC50     6.07
3  Nc1nc(CS(=O)(=O)c2ccc(Cl)cc2NS(=O)(=O)c2cc3ccccc3o2)cs1          pIC50     7.08
4  Nc1cccc(CSc2ccc(Cl)cc2NS(=O)(=O)c2cc3ccccc3o2)n1          pIC50     7.49
5  CN(C)C(=O)CCS(=O)(=O)c1ccc(Cl)cc1NS(=O)(=O)c1ccc(F)cc1F          pIC50     5.80
6  O=S(=O)(Nc1cc(Cl)ccc1SCc1cc[nH]n1)c1cc2ccccc2o1          pIC50     7.80
7  CN(C)C(=O)CC[S+]([O-])c1ccc(Cl)cc1NS(=O)(=O)c1cc2ccccc2o1 (stereo not drawn)          pIC50     6.80

For record Nc1cccc(C[S+]([O-])c2ccccc2NS(=O)(=O)c2cc3ccccc3o2)c1 (stereo not drawn) the listed pIC50 is 7.24
